Exercise: state measured pIC50 for each of the molecules provided.
- test.system: DRB3*0101 (Homo sapiens, UniProt P01903+P79483)
- test.details: biochemical
By convention, pIC50 is the negative base-10 log of a molar concentration.

# get_value(readout= pIC50, system= DRB3*0101 (Homo sapiens, UniProt P01903+P79483)) for CC[C@H](C)[C@H](NC(=O)[C@@H](NC(=O)[C@H](CCCCN)NC(=O)[C@H](CCCCN)NC(=O)CNC(=O)[C@H](CC(N)=O)NC(=O)[C@H](CCCCN)NC(=O)[C@H](CCCNC(=N)N)NC(=O)[C@H](CC(C)C)NC(=O)[C@H](CS)NC(=O)[C@H](CC(N)=O)NC(=O)[C@H](C)N)C(C)C)C(=O)N[C@@H](CCC(N)=O)C(=O)N[C@@H](CC(C)C)C(=O)N[C@@H](CO)C(=O)O
5.46

# get_value(readout= pIC50, system= DRB3*0101 (Homo sapiens, UniProt P01903+P79483)) for CC[C@H](C)[C@H](NC(=O)[C@H](CC(=O)O)NC(=O)[C@H](CCSC)NC(=O)[C@@H](NC(=O)[C@@H](NC(=O)CNC(=O)[C@H](CCCCN)NC(=O)[C@@H]1CCCN1C(=O)[C@@H](NC(=O)[C@@H]1CCCN1)[C@@H](C)O)[C@@H](C)O)C(C)C)C(=O)N[C@H](C(=O)N[C@@H](CO)C(=O)N[C@@H](CCCNC(=N)N)C(=O)N[C@@H](CCCCN)C(=O)N[C@@H](CC(=O)O)C(=O)N[C@@H](CCC(N)=O)C(=O)N[C@@H](CCCNC(=N)N)C(=O)O)[C@@H](C)CC
5.14

# get_value(readout= pIC50, system= DRB3*0101 (Homo sapiens, UniProt P01903+P79483)) for CC[C@H](C)[C@H](NC(=O)[C@H](CCSC)NC(=O)[C@H](CO)NC(=O)[C@H](CO)NC(=O)[C@H](C)NC(=O)[C@H](CO)NC(=O)CNC(=O)[C@@H](NC(=O)[C@H](C)NC(=O)[C@H](CCCCN)NC(=O)[C@@H](NC(=O)[C@H](CCC(=O)O)NC(=O)[C@H](Cc1ccc(O)cc1)NC(=O)[C@H](CO)NC(=O)CN)C(C)C)[C@@H](C)O)C(=O)N[C@@H](CC(N)=O)C(=O)NCC(=O)O
5.64

# get_value(readout= pIC50, system= DRB3*0101 (Homo sapiens, UniProt P01903+P79483)) for CC[C@H](C)[C@H](NC(=O)[C@H](Cc1c[nH]c2ccccc12)NC(=O)[C@H](CCC(=O)O)NC(=O)[C@@H](N)CC(N)=O)C(=O)N[C@H](C(=O)N[C@@H](CC(=O)O)C(=O)N[C@@H](Cc1ccccc1)C(=O)N[C@@H](C)C(=O)NCC(=O)N[C@@H](CCCCN)C(=O)N[C@H](C(=O)N[C@H](C(=O)N[C@@H](Cc1c[nH]c2ccccc12)C(=O)N[C@@H](Cc1ccccc1)C(=O)N[C@H](C(=O)O)C(C)C)C(C)C)[C@@H](C)O)[C@@H](C)O
6.66

# get_value(readout= pIC50, system= DRB3*0101 (Homo sapiens, UniProt P01903+P79483)) for CC[C@H](C)[C@H](N)C(=O)N[C@H](C(=O)NCC(=O)N[C@H](C(=O)N[C@@H](CC(C)C)C(=O)N[C@@H](CCC(=O)O)C(=O)N[C@@H](CCC(N)=O)C(=O)NCC(=O)N[C@@H](CCCCN)C(=O)N[C@@H](CCCNC(=N)N)C(=O)N[C@H](C(=O)N[C@@H](CC(C)C)C(=O)N[C@H](C(=O)N1CCC[C@H]1C(=O)N[C@@H](CCC(N)=O)C(=O)O)[C@@H](C)O)[C@@H](C)O)C(C)C)[C@@H](C)CC
5.36

# get_value(readout= pIC50, system= DRB3*0101 (Homo sapiens, UniProt P01903+P79483)) for CC[C@H](C)[C@H](NC(=O)[C@H](CC(C)C)NC(=O)[C@H](CCCCN)NC(=O)CNC(=O)[C@H](CO)NC(=O)[C@@H](NC(=O)[C@@H](NC(=O)[C@@H](NC(=O)[C@@H](NC(=O)[C@H](CCCNC(=N)N)NC(=O)[C@H](CC(C)C)NC(=O)[C@@H](N)CO)[C@@H](C)O)[C@@H](C)O)[C@@H](C)O)C(C)C)C(=O)N[C@@H](Cc1c[nH]cn1)C(=O)N[C@@H](CCC(=O)O)C(=O)N[C@@H](Cc1c[nH]c2ccccc12)C(=O)O
4.91

# get_value(readout= pIC50, system= DRB3*0101 (Homo sapiens, UniProt P01903+P79483)) for CC[C@H](C)[C@H](NC(=O)CNC(=O)[C@H](CO)NC(=O)CNC(=O)[C@H](CS)NC(=O)[C@H](CCCCN)NC(=O)[C@H](CC(C)C)NC(=O)[C@H](CCC(=O)O)NC(=O)[C@H](CCCCN)NC(=O)CNC(=O)[C@H](CCCCN)NC(=O)[C@H](Cc1c[nH]c2ccccc12)NC(=O)[C@H](CC(N)=O)NC(=O)[C@@H](NC(=O)[C@@H](N)C(C)C)[C@@H](C)CC)C(=O)O
5.20

# get_value(readout= pIC50, system= DRB3*0101 (Homo sapiens, UniProt P01903+P79483)) for CC[C@H](C)[C@H](NC(=O)[C@H](C)NC(=O)[C@H](C)NC(=O)[C@H](C)NC(=O)[C@@H](N)CCC(=O)O)C(=O)N[C@@H](Cc1ccccc1)C(=O)N[C@@H](CCSC)C(=O)N[C@H](C(=O)N[C@@H](C)C(=O)N[C@H](C(=O)N1CCC[C@H]1C(=O)N1CCC[C@H]1C(=O)NCC(=O)N[C@H](C(=O)N[C@@H](C)C(=O)O)[C@@H](C)O)[C@@H](C)O)[C@@H](C)O
4.93

# get_value(readout= pIC50, system= DRB3*0101 (Homo sapiens, UniProt P01903+P79483)) for CC[C@H](C)[C@H](NC(=O)[C@H](CS)NC(=O)[C@H](Cc1ccccc1)NC(=O)[C@H](CCC(N)=O)NC(=O)[C@@H](N)CC(N)=O)C(=O)N[C@@H](CCCCN)C(=O)N[C@H](C(=O)N[C@@H](CC(C)C)C(=O)N[C@@H](CC(N)=O)C(=O)N1CCC[C@H]1C(=O)N[C@@H](Cc1ccc(O)cc1)C(=O)N[C@@H](CCSC)C(=O)N1CCC[C@H]1C(=O)N[C@H](C(=O)N[C@H](C(=O)N[C@H](C(=O)N[C@@H](CCC(=O)O)C(=O)O)[C@@H](C)CC)C(C)C)[C@@H](C)O)C(C)C
5.87
